Where these numbers come from: ChEMBL document CHEMBL1134142

Experiment: The compound was tested for toxicity in tail vein irritation model; No
Settings: mouse
Bridge positions count the residues as written; N and C are the ends. Square brackets hold non-standard residues; d marks the D form. Peptide text beside a SMILES is read from it. * marks the point of attachment. Tetradecanoyl(3R-OH) = CCCCCCCCCCC[C@@H](O)CC(=O)*; Asp(3S-OH) = N[C@H](C(=O)O)[C@H](O)C(=O)O; Thr(4-Cl) = N[C@H](C(=O)O)[C@H](O)CCl; aThr = C[C@H](O)[C@H](N)C(=O)O; dDab = NCC[C@@H](N)C(=O)O; NHCH2CH2NMe2 = CN(C)CCN*; Dab = NCC[C@H](N)C(=O)O; Dhb = C/C=C(\N)C(=O)O
ATTRIBUTE_MEASURED: Toxicity

| COMPOUND | READOUT_VALUE |
| --- | --- |
| C/C=C1\NC(=O)[C@H]([C@H](C)O)NC(=O)[C@H](CCNC(=O)OCOC(=O)C(C)C)NC(=O)[C@H](CCCCNC(=O)OCOC(=O)C(C)C)NC(=O)[C@H](CC(=O)NCCN(C)C)NC(=O)[C@@H](CCNC(=O)OCOC(=O)C(C)C)NC(=O)[C@@H](NC(=O)C[C@H](O)CCCCCCCCCCC)COC(=O)[C@H]([C@H](O)CCl)NC(=O)[C@H]([C@H](O)C(=O)O)NC1=O | Not toxic |
| C/C=C1\NC(=O)[C@H]([C@H](C)O)NC(=O)[C@H](CCN)NC(=O)[C@H](CCCCN)NC(=O)[C@H](CC(=O)NCCN(C)C)NC(=O)[C@@H](CCN)NC(=O)[C@@H](NC(=O)C[C@H](O)CCCCCCCCCCC)COC(=O)[C@H]([C@H](O)CCl)NC(=O)[C@H]([C@H](O)C(=O)O)NC1=O ({Tetradecanoyl(3R-OH)}-S[dDab]D(NHCH2CH2NMe2)K[Dab][aThr][Dhb][Asp(3S-OH)][Thr(4-Cl)]; ester 1-C) | Not toxic |
| C/C=C1\NC(=O)[C@H]([C@H](C)O)NC(=O)[C@H](CCNC(=O)OCOC(=O)C(C)(C)C)NC(=O)[C@H](CCCCNC(=O)OCOC(=O)C(C)(C)C)NC(=O)[C@H](CC(=O)NCCN(C)C)NC(=O)[C@@H](CCNC(=O)OCOC(=O)C(C)(C)C)NC(=O)[C@@H](NC(=O)C[C@H](O)CCCCCCCCCCC)COC(=O)[C@H]([C@H](O)CCl)NC(=O)[C@H]([C@H](O)C(=O)O)NC1=O | Not toxic |

---

Bridge positions count the residues as written; N and C are the ends. Square brackets hold non-standard residues; d marks the D form. Peptide text beside a SMILES is read from it. * marks the point of attachment. Tetradecanoyl(3R-OH) = CCCCCCCCCCC[C@@H](O)CC(=O)*; Asp(3S-OH) = N[C@H](C(=O)O)[C@H](O)C(=O)O; Thr(4-Cl) = N[C@H](C(=O)O)[C@H](O)CCl; aThr = C[C@H](O)[C@H](N)C(=O)O; dDab = NCC[C@@H](N)C(=O)O; Dab = NCC[C@H](N)C(=O)O; Dhb = C/C=C(\N)C(=O)O; X1 = CCN(CC)CCN*
Here's a batch of compounds along with measured MIC for Cryptococcus neoformans.
ATTRIBUTE_MEASURED: MIC (µg/mL)

| COMPOUND | MEASUREMENT_UNITS | LIMIT_QUALIFIER | READOUT_VALUE |
| --- | --- | --- | --- |
| C/C=C1\NC(=O)[C@H]([C@H](C)O)NC(=O)[C@H](CCN)NC(=O)[C@H](CCCCN)NC(=O)[C@H](CC(=O)O)NC(=O)[C@@H](CCN)NC(=O)[C@@H](NC(=O)C[C@H](O)CCCCCCCCCCC)COC(=O)[C@H]([C@H](O)CCl)NC(=O)[C@H]([C@H](O)C(=O)O)NC1=O [PSEUDOMYCIN B] ({Tetradecanoyl(3R-OH)}-S[dDab]DK[Dab][aThr][Dhb][Asp(3S-OH)][Thr(4-Cl)]; ester 1-C) | µg/mL | = | 0.01 |
| C/C=C1\NC(=O)[C@H]([C@H](C)O)NC(=O)[C@H](CCNC(=O)OCOC(=O)C(C)C)NC(=O)[C@H](CCCCNC(=O)OCOC(=O)C(C)C)NC(=O)[C@H](CC(=O)NCCN(CC)CC)NC(=O)[C@@H](CCNC(=O)OCOC(=O)C(C)C)NC(=O)[C@@H](NC(=O)C[C@H](O)CCCCCCCCCCC)COC(=O)[C@H]([C@H](O)CCl)NC(=O)[C@H]([C@H](O)C(=O)O)NC1=O | µg/mL | = | 20 |
| C/C=C1\NC(=O)[C@H]([C@H](C)O)NC(=O)[C@H](CCN)NC(=O)[C@H](CCCCN)NC(=O)[C@H](CC(=O)NCCN(CC)CC)NC(=O)[C@@H](CCN)NC(=O)[C@@H](NC(=O)C[C@H](O)CCCCCCCCCCC)COC(=O)[C@H]([C@H](O)CCl)NC(=O)[C@H]([C@H](O)C(=O)O)NC1=O ({Tetradecanoyl(3R-OH)}-S[dDab]D(X1)K[Dab][aThr][Dhb][Asp(3S-OH)][Thr(4-Cl)]; ester 1-C) | µg/mL | < | 0.01 |
